The reported measurements were obtained from paper PMC9482650.

Target: SCRIB_3, Q14160
Sequence (Q14160 999-1103): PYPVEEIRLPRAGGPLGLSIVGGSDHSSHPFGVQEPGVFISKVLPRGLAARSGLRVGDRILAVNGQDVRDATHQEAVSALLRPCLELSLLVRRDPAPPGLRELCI
Experiment: holdup assay
Set-up: key: below the threshold = too weak to quantify, mostly under pKd 3.1 to 4
Conditions: plain residues with an end cap or a label only (N-terminal biotin on a linker: ado-ado)
Classification field: 1 = pKd at or over 4; -1 = pKd under 4.

- binder: "FHSIKQSTAV [CRHR1, P34998]"
  category label: 1

Determine whether measured pKd meets or exceeds 4 for KSRPENGTVC [TMEM178B, H3BS89]
-1

Determine whether measured pKd meets or exceeds 4 for THHRKIHTRV [ZNF599, Q96NL3]
-1

Determine whether measured pKd meets or exceeds 4 for DSEEELPTRL [GRK6, P43250]
-1
